This section presents molecules with their documented k cat/K m values.
- target.under.test: CATPO E484A variant (Scytalidium thermophilum (Humicola insolens), UniProt M4GGR5, E503A)
- Sequence (M4GGR5 entry or part of it E503A): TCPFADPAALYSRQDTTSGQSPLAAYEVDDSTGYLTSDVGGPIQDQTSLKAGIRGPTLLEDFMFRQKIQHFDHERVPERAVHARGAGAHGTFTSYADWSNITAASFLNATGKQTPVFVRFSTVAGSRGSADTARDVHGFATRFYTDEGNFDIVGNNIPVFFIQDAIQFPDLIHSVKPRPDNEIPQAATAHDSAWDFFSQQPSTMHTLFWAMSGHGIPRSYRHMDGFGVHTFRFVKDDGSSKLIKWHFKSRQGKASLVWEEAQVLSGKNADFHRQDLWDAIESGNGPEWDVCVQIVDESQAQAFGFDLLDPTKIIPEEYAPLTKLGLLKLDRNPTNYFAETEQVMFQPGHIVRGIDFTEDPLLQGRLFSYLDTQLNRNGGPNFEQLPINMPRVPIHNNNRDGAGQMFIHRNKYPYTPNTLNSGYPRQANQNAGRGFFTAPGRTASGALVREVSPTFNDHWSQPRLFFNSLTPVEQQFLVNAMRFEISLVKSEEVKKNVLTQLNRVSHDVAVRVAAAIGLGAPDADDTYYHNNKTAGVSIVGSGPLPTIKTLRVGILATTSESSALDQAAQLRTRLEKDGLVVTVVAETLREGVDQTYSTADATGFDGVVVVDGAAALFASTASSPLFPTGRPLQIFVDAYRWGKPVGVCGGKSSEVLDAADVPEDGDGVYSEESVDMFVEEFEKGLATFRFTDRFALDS
- experimental.protocol: Substrate-specificity analysis of the phenol oxidase activity
- Format: biochemical
Marks after values point to notes of the source that are not given here.

Below, each entry is followed by its recorded k cat/K m result.
Which k cat/K m is reported with CATPO E484A variant (Scytalidium thermophilum (Humicola insolens), UniProt M4GGR5, E503A) for this entry: `Oc1cccc(O)c1O` ? 6000 ± 50 s^−1 M^−1 (×10^2)

Now this one: `CCn1c(=NN=c2sc3cc(S(=O)(=O)O)ccc3n2CC)sc2cc(S(=O)(=O)O)ccc21` 300 ± 10 s^−1 M^−1 (×10^2)

Now this one: `Oc1ccccc1O` 14500 ± 130 s^−1 M^−1 (×10^2)

Now this one: `CC(C)(C)c1ccc(O)c(O)c1` 10000 ± 65 s^−1 M^−1 (×10^2)

Now this one: `Cc1ccc(O)c(O)c1` 10100 ± 90 s^−1 M^−1 (×10^2)

***
Which k cat/K m is reported with CATPO E484A variant (Scytalidium thermophilum (Humicola insolens), UniProt M4GGR5, E503A) for this entry: Oc1ccc(O)cc1 [Hydroquinone, p-hydroquinone] ? 600 ± 40 s^−1 M^−1 (×10^2)
